Organism: Rattus norvegicus
experimental_protocol: DrugMatrix - Regimen: Daily Repeat
Format: toxicity, organism-based, Sprague-Dawley
Parameters: regimen Daily Repeat, gender Male, age 6-8 weeks
experimental_parameters: in vivo, ip, 160 mg/kg, […], tissue Blood, route intraperitoneal, dose level High, time 14 day, vehicle 100 % SALINE

| compound | ABSOLUTE MONOCYTE, cells/µL |
| --- | --- |
| NCC[C@H](O)C(=O)N[C@@H]1C[C@H](N)[C@@H](O[C@H]2O[C@H](CN)[C@@H](O)[C@H](O)[C@H]2O)[C@H](O)[C@H]1O[C@H]1O[C@H](CO)[C@@H](O)[C@H](N)[C@H]1O [AMIKACIN] | 290 |

* * *

Organism: Rattus norvegicus
experimental_protocol: DrugMatrix - Regimen: Daily Repeat
Assay type: toxicity, organism-based, Sprague-Dawley
Design: regimen Daily Repeat, gender Male, age 6-8 weeks
experimental_parameters: in vivo, iv, 0 mg/kg, 72 h, tissue Plasma, dose level Control, time 3 day, vehicle 100 % SALINE

| input_smiles | TOTAL PROTEIN (G/DL) |
| --- | --- |
| NCC[C@H](O)C(=O)N[C@@H]1C[C@H](N)[C@@H](O[C@H]2O[C@H](CN)[C@@H](O)[C@H](O)[C@H]2O)[C@H](O)[C@H]1O[C@H]1O[C@H](CO)[C@@H](O)[C@H](N)[C@H]1O | 5.83 |
| CN(N=O)C(=O)N[C@@H](C=O)[C@@H](O)[C@H](O)[C@H](O)CO | 5.57 |
| CC1(C)S[C@@H]2[C@H](NC(=O)[C@H](NC(=O)N3CCNC3=O)c3ccccc3)C(=O)N2[C@H]1C(=O)O | 5.87 |
| CC[C@@]1(O)C(=O)OCc2c1cc1n(c2=O)Cc2cc3ccccc3nc2-1 | 6.02 |

* * *

Species: Rattus norvegicus
experimental_protocol: DrugMatrix - Regimen: Daily Repeat
Type: toxicity, organism-based, Sprague-Dawley
Design: regimen Daily Repeat, gender Male, age 6-8 weeks
experimental_parameters: in vivo, po, 0 mg/kg, 120 h, tissue Plasma, route oral GAVAGE, dose level Control, time 5 day, […]
Each entry below carries its recorded TOTAL BILIRUBIN.
measurement_label: TOTAL BILIRUBIN (mg/dL)

| compound | measurement_label | readout_number |
| --- | --- | --- |
| COCc1c(C(C)C)nc(C(C)C)c(/C=C/[C@@H](O)C[C@@H](O)CC(=O)O)c1-c1ccc(F)cc1 [CERIVASTATIN] | TOTAL BILIRUBIN | 0.12 |
| O=[N+]([O-])c1cc([As](=O)(O)O)ccc1O [ROXARSONE] | TOTAL BILIRUBIN | 0.16 |
| C=CCN [ALLYLAMINE] | TOTAL BILIRUBIN | 0.37 |
| CC1=C(/C=C/C(C)=C/C=C/C(C)=C\C(=O)O)C(C)(C)CCC1 [ISOTRETINOIN] | TOTAL BILIRUBIN | 0.2 |
| CSc1ccc2c(c1)N(CCC1CCCCN1C)c1ccccc1S2 (stereo unspecified) [THIORIDAZINE] | TOTAL BILIRUBIN | 0.17 |
| Oc1c(Cl)cc(Cl)cc1Sc1cc(Cl)cc(Cl)c1O [BITHIONOL] | TOTAL BILIRUBIN | 0.25 |
| COC1=CC(=O)C[C@@H](C)[C@]12Oc1c(Cl)c(OC)cc(OC)c1C2=O [GRISEOFULVIN] | TOTAL BILIRUBIN | 0.22 |
| c1ccc2[nH]c(-c3cscn3)nc2c1 [THIABENDAZOLE] | TOTAL BILIRUBIN | 0.17 |
| Cn1cnc([N+](=O)[O-])c1Sc1ncnc2nc[nH]c12 [AZATHIOPRINE] | TOTAL BILIRUBIN | 0.2 |
| CC(C)(Oc1ccc(CCNC(=O)c2ccc(Cl)cc2)cc1)C(=O)O [BEZAFIBRATE] | TOTAL BILIRUBIN | 0.16 |
| CC(=O)[C@H]1CC[C@H]2[C@@H]3CCC4=CC(=O)CC[C@]4(C)[C@H]3CC[C@]12C [PROGESTERONE] | TOTAL BILIRUBIN | 0.2 |
